Reference for the values: patent US20260258115A1

molecular target: RSV prefusion F (preF), DS-Cav1 (respiratory syncytial virus, UniProt P03420 26-513); assay: BLI, IgG on sensor, 100 nM antigen
Recorded measurements of Kd, one per entry
Field format: number, assumed nM, no unit text.

Request: Need Kd, item ADI-41375 (antibody, V domains shown, IgG1) VH: QVQLVQSGGGVVQPGRSLRLSCATSGFTFSDYAIHWVRQAPGKGLEWVAVISYDGSHKYYGDSVKGRFTISRDNSKNTLYLQMNSLRPEDTAVYYCARSRSGSYYSSAIDNWGQGTLVTVSS VL: DIQMTQSPSSLSASVGDRVTIACRASQGISSALAWYRQRPGKAPELLIYDASTLESGVPSRFSGYGAGTDFTLTISSLQPEDFATYYCQQFNSYPSITFGQGTKVEIK
Result: 2.96

Request: Proceed to ADI-41381 (antibody, V domains shown, IgG1; also called Ab 678) VH: QVQLQESGPGLVKPSQTLSLTCTVSGDSISGGEHYWSWIRQPPGKGLEWIGSIYYSGTTYYNPSLKSRLTVSVDTFKNQFSLMLSYVTAADTAVYYCARDASPAYHDYIWGSCRYFDKWGQGTLVTVSS VL: EIVLTQSPGTLSLSPGERATLSCRASQSVSSNYLAWYQQKPGQAPRILIHGASSRATGIPDRFSGSGSGTDFTLTVSRLEPEDFAVYYCQQYGSTPYTFGQGTKVEIK
Result: 2.6

Request: Proceed to ADI-41356 (antibody, V domains shown, IgG1) VH: QVQLVQSGAEVKKPGASVKVSCKASGYTFTNYDINWVRQATGQGLEWMGWMNRNNGNTGYARKFQGRVTMTRNTSISTAYMELSSLRSEDTAVYYCARGGDFYAMDVWGQGTTVTVSS VL: SYELTQPPSVSVSPGQTASITCSGDKLGDKYASWYQQKPGQSPVLVIYQDTKRPSGVPERFSGSNSGNTATLTISGTQAVDEADYYCQVWDGSIAFGGGTKVTVL
Result: 0.725
